Experiment: Half life in Sprague-Dawley rat at 20 mg/kg, po measured upto 12 hrs by HPLC-MS/MS analysis
Assay type: ADME, organism-based
Details: in vivo
readout: half-life (h)

INSERT INTO results (smiles_data, unit_text, experimental_value) VALUES
  ('COc1ccc(-c2oc3c4c(cc(O)c3c(=O)c2OC(=O)N[C@@H](CC(C)C)C(=O)O)OC(C)(C)CC4)cc1', 'h', 5.34);

---

Test: Drug uptake in human Caco-2 cells at 5 uM at pH 7.4 incubated for 10 mins by HPLC-MS/MS analysis
Type: ADME, cell-based
Details: caco-2, pH 7.4, 10 min
readout: Drug uptake

INSERT INTO assay_data (smiles_data, experimental_value) VALUES
  ('COc1ccc(-c2oc3c4c(cc(O)c3c(=O)c2OC(=O)N[C@@H](CC(C)C)C(=O)O)OC(C)(C)CC4)cc1', 'Not Active'),
  ('COc1ccc(-c2oc3c4c(cc(O)c3c(=O)c2OC(=O)N[C@H](C(=O)O)C(C)C)OC(C)(C)CC4)cc1', 'Not Active'),
  ('CC[C@H](C)[C@H](NC(=O)Oc1c(-c2ccc(OC)cc2)oc2c3c(cc(O)c2c1=O)OC(C)(C)CC3)C(=O)O', 'Not Active');

Reference for the values: ChEMBL document CHEMBL5608185
